Value source: ChEMBL document CHEMBL5058577

system: U2OS; experiment: Multiplex assay against U2OS; type: toxicity, cell-based; settings: human, 48 h, 10 µM, compound concentration 10 uM, replicate 2
recorded endpoint: Population Apoptotic (%)
API: value field is a number in %; no unit string.

{"compound": "CCc1cc2cc(NS(=O)(=O)c3ccc(C#N)cc3)ccc2n(CC)c1=O", "Population Apoptotic (%)": 96}

Item: Cl.N=C(N)NC(=O)Cc1c(Cl)cccc1Cl [GUANFACINE HYDROCHLORIDE] | Population Apoptotic (%): 95

Item: CN[C@@H](C)C(=O)N[C@H](C(=O)N1CCC[C@H]1C(=O)Nc1snnc1-c1ccccc1)C1CCCCC1 | Population Apoptotic (%): 98

Item: CCCCC1=NC2(CCCC2)C(=O)N1Cc1ccc(-c2ccccc2-c2nnn[nH]2)cc1 | Population Apoptotic (%): 94

Item: COc1ccccc1N1CCN(C[C@@H](C(=O)NC(C)(C)C)c2ccccc2)CC1.Cl.Cl | Population Apoptotic (%): 96

Item: CC(C)c1noc(N2CCC(COc3ccc(-c4ccc(S(C)(=O)=O)cc4)nc3)CC2)n1 | Population Apoptotic (%): 83

====

test system: U2OS; assay: Multiplex assay against U2OS; assay type: toxicity, cell-based; conditions: human, 12 h, 10 µM, compound concentration 10 uM, replicate 2
recorded endpoint: Population Tubulin-Different-Phenotype (%)
The reply should consist of the numeric value with the unit placed after it.

{"compound": "CC(C)(C)c1cc(NC(=O)Nc2ccc(-c3cn4c(n3)sc3cc(OCCN5CCOCC5)ccc34)cc2)no1 [QUIZARTINIB]", "result": "54%"}
{"compound": "C[C@H](N)COC(=O)[C@@H](CCCCN)NC(=O)Cc1c(-c2ccc3ccccc3c2)[nH]c2c1ccc1ccccc12", "result": "5%"}
{"compound": "CC(/C=C1\\SC(=S)N(CCCC(=O)Nc2ccc(C(=O)O)c(O)c2)C1=O)=C\\c1ccccc1", "result": "5%"}

Turning to the following compound.
U2OS Population Tubulin-Different-Phenotype (%) of CC(C)COc1ccc(CNC(=O)N(Cc2ccc(F)cc2)C2CCN(C)CC2)cc1 [PIMAVANSERIN] is 52%

====

system: HEK-293T; test: Multiplex assay against HEK293T; assay type: toxicity, cell-based; settings: human, 24 h, 1 µM, compound concentration 1 uM, replicate 2
recorded endpoint: Population Healthy Nuclei (%)
API: value field is a number in %; no unit string.

For orientation, consider the following solved cases.
{"substance smiles": "Cc1cccc(NC(=O)CN2CCC(c3ccccn3)CC2)c1.Cl.Cl", "recorded endpoint": "Population Healthy Nuclei (%)", "display unit": "%", "numeric result": 79}
{"substance smiles": "Cc1c(CC(=O)O)c2cccnc2n1Cc1ccc(S(C)(=O)=O)cc1C(F)(F)F", "recorded endpoint": "Population Healthy Nuclei (%)", "display unit": "%", "numeric result": 82}
{"substance smiles": "CN1CCN(c2cc(-c3ccccc3)nc(N)n2)CC1", "recorded endpoint": "Population Healthy Nuclei (%)", "display unit": "%", "numeric result": 82}

Turning to the following compound.
HEK-293T Population Healthy Nuclei (%) of N#Cc1c(Oc2cccc(OS(=O)(=O)CCCC(F)(F)F)c2)cccc1C(F)(F)F is 81

====

Population Apoptotic (%) reference
system: HEK-293T; test: Multiplex assay against HEK293T; format: toxicity, cell-based; conditions: human, 12 h, 10 µM, compound concentration 10 uM, replicate 2
API: value field is a number in %; no unit string.

{"substance smiles": "CC(=O)Nc1cccc2c1c(Sc1ccc(Cl)cc1)c(C)n2CC(=O)O", "Population Apoptotic (%)": 60}
{"substance smiles": "C[C@H](N)COC(=O)[C@@H](CCCCN)NC(=O)Cc1c(-c2ccc3ccccc3c2)[nH]c2c1ccc1ccccc12", "Population Apoptotic (%)": 61}
{"substance smiles": "O=C1[C@H](Cc2ccc(O)cc2)N2C(=O)CCN(C(=O)NCc3ccccc3)[C@H]2CN1Cc1cccc2ccccc12", "Population Apoptotic (%)": 60}

HEK-293T Population Apoptotic (%) of CN[C@@H](C)C(=O)N[C@H](C(=O)N1CCC[C@H]1C(=O)Nc1snnc1-c1ccccc1)C1CCCCC1 is 72

HEK-293T Population Apoptotic (%) of COc1cccc2c1c(NS(=O)(=O)c1ccc(Cl)s1)nn2Cc1cccc(CNC(=O)C(C)(C)O)c1 is 35

HEK-293T Population Apoptotic (%) of Cc1onc(-c2ccccc2Cl)c1C(=O)N(C)c1ccc(Cl)cc1 is 45

HEK-293T Population Apoptotic (%) of O=C(CCCc1ccccc1)Nc1nc2ccccc2c(=O)s1 is 44

HEK-293T Population Apoptotic (%) of CCCCC1=NC2(CCCC2)C(=O)N1Cc1ccc(-c2ccccc2-c2nnn[nH]2)cc1 is 56

====

Population Pyknosed Nuclei (%) reference
system: Fibroblast; assay: Multiplex assay against human fibroblast; assay type: toxicity, cell-based; settings: 48 h, 1 µM, compound concentration 1 uM, replicate 2

{"compound": "CN1CCN(c2cc(-c3ccccc3)nc(N)n2)CC1", "subject of test": "Fibroblast", "Population Pyknosed Nuclei (%)": "14%"}
{"compound": "Cl.NCCc1ccc(O)c(O)c1 [DOPAMINE HYDROCHLORIDE]", "subject of test": "Fibroblast", "Population Pyknosed Nuclei (%)": "14%"}

Item: Cl.N=C(N)NC(=O)Cc1c(Cl)cccc1Cl [GUANFACINE HYDROCHLORIDE] | Population Pyknosed Nuclei (%): 21%

Item: CC[C@@H](C)Nc1nc(C)nc2c(-c3ccc(OC)nc3C)c(C)nn12 | Population Pyknosed Nuclei (%): 14%

Item: CC(C)COc1ccc(CNC(=O)N(Cc2ccc(F)cc2)C2CCN(C)CC2)cc1 | Population Pyknosed Nuclei (%): 10%

Item: CCCCC1=NC2(CCCC2)C(=O)N1Cc1ccc(-c2ccccc2-c2nnn[nH]2)cc1 | Population Pyknosed Nuclei (%): 10%

Item: Cc1c(CC(=O)O)c2cccnc2n1Cc1ccc(S(C)(=O)=O)cc1C(F)(F)F | Population Pyknosed Nuclei (%): 12%

====

test system: HEK-293T; test: Multiplex assay against HEK293T; assay type: toxicity, cell-based; conditions: human, 48 h, 1 µM, compound concentration 1 uM, replicate 2
recorded endpoint: Population Healthy Nuclei (%)
API: value field is a number in %; no unit string.

For orientation, consider the following solved cases.
{"compound": "CN[C@@H](C)C(=O)N[C@H](C(=O)N1CCC[C@H]1C(=O)Nc1snnc1-c1ccccc1)C1CCCCC1", "subject of test": "HEK-293T", "Population Healthy Nuclei (%)": 82}
{"compound": "COc1ccccc1N1CCN(C[C@@H](C(=O)NC(C)(C)C)c2ccccc2)CC1.Cl.Cl", "subject of test": "HEK-293T", "Population Healthy Nuclei (%)": 80}

HEK-293T Population Healthy Nuclei (%) of O=C1[C@H](Cc2ccc(O)cc2)N2C(=O)CCN(C(=O)NCc3ccccc3)[C@H]2CN1Cc1cccc2ccccc12 is 81

HEK-293T Population Healthy Nuclei (%) of Cl.NCCc1ccc(O)c(O)c1 [DOPAMINE HYDROCHLORIDE] is 81

HEK-293T Population Healthy Nuclei (%) of Cc1onc(-c2ccccc2Cl)c1C(=O)N(C)c1ccc(Cl)cc1 is 82

HEK-293T Population Healthy Nuclei (%) of CN(C)C(=O)Cn1cc(-c2ccc(-c3cncc4ccccc34)cc2)cn1 is 82

====

system: U2OS; experiment: Multiplex assay against U2OS; assay type: toxicity, cell-based; conditions: human, 48 h, 1 µM, compound concentration 1 uM, replicate 2
recorded endpoint: Population Tubulin-Different-Phenotype (%)
API: value field is a number in %; no unit string.

For orientation, consider the following solved cases.
{"compound": "Cc1onc(-c2ccccc2Cl)c1C(=O)N(C)c1ccc(Cl)cc1", "display unit": "%", "numeric result": 1}
{"compound": "COc1cccc2c1c(NS(=O)(=O)c1ccc(Cl)s1)nn2Cc1cccc(CNC(=O)C(C)(C)O)c1", "display unit": "%", "numeric result": 5}
{"compound": "CC(C)(C)c1cc(NC(=O)Nc2ccc(-c3cn4c(n3)sc3cc(OCCN5CCOCC5)ccc34)cc2)no1", "display unit": "%", "numeric result": 6}
{"compound": "COc1ccccc1N1CCN(C[C@@H](C(=O)NC(C)(C)C)c2ccccc2)CC1.Cl.Cl", "display unit": "%", "numeric result": 4}
{"compound": "CCCCCC(O)/C=C/[C@H]1C(=O)CC(O)C1C/C=C\\CCCC(=O)O (some centres not stated)", "display unit": "%", "numeric result": 3}
{"compound": "NCCc1cn(S(=O)(=O)c2c(Cl)nc3sccn23)c2ccccc12.O=C(O)C(=O)O", "display unit": "%", "numeric result": 7}

Turning to the following compound.
Item: N#Cc1cc(F)cc(-c2nc(-c3ccc(F)cn3)no2)c1 | Population Tubulin-Different-Phenotype (%): 1
